Each entry below carries its recorded pIC50.
Tested on: Plasmodium falciparum
Test: Antimalarial activity against chloroquine-resistant Plasmodium falciparum W2 cultured in human erythrocytes assessed as inhibition of parasite growth incubated for 48 hrs by YOYO-1 staining based flow cytometry
Assay type: functional, organism-based
Details: W2, 48 h
pIC50 here is simply -log10 of the concentration when that concentration is written in mol/L.

Known results for compounds:
O=C(OC1CCCCC1)c1cnc(Oc2ccc3c(c2)B(O)OC3)cn1
9.15
CN(C)CCNC(=O)c1cnc(Oc2ccc3c(c2)B(O)OC3)cn1
5.18
COC(=O)c1ccc(Oc2ccc3c(c2)B(O)OC3)cn1
7.64

So for CC1(C)COC(c2cnc(Oc3ccc4c(c3)B(O)OC4)cn2)=N1 , the logged pIC50 turned out to be 6.10

So for CC(C)(N)COC(=O)c1cnc(Oc2ccc3c(c2)B(O)OC3)cn1 , the logged pIC50 turned out to be 6.72

So for CC(C)CCOC(=O)c1cnc(Oc2ccc3c(c2)B(O)OC3)cn1 , the logged pIC50 turned out to be 9.40

So for CN(C)C(=O)c1cnc(Oc2ccc3c(c2)B(O)OC3)cn1 , the logged pIC50 turned out to be 6.82

So for COC(=O)c1cnc(Oc2ccc3c(c2)B(O)OC3)cn1 , the logged pIC50 turned out to be 8.85

So for CC(C)(C)COC(=O)c1cnc(Oc2ccc3c(c2)B(O)OC3)cn1 , the logged pIC50 turned out to be 8.18

So for CCNC(=O)c1cnc(Oc2ccc3c(c2)B(O)OC3)cn1 , the logged pIC50 turned out to be 6.92

###

System: Plasmodium falciparum
Experiment: Antimalarial activity against chloroquine-resistant Plasmodium falciparum W2 cultured in human erythrocytes assessed as inhibition of parasite growth incubated for 48 hrs by YOYO-1 staining based flow cytometry
Format: functional, organism-based
Details: W2, 48 h
Each entry below carries its recorded IC50.
Your answer is read as µM, so omit the unit and give the number.

COC(=O)c1ccc(Oc2ccc3c(c2)B(O)OC3)nn1
0.082
CCOC(=O)c1cnc(Oc2ccc3c(c2)B(O)OC3)cn1
0.0005
CC(C)OC(=O)c1cnc(Oc2ccc3c(c2)B(O)OC3)cn1
0.0012
NCc1cnc(Oc2ccc3c(c2)B(O)OC3)cn1
0.11

Please turn your attention to the following entry.
So for OCc1cnc(Oc2ccc3c(c2)B(O)OC3)cn1 , the logged IC50 turned out to be 0.44

All figures here come from ChEMBL document CHEMBL3580633.
